target: ATM (Homo sapiens, UniProt Q13315); construct: detecting phosphorylation of Chk2 in a human non-small cell lung cancer cell line NCI-H460 (ATCC company); host or cells: NCI-H460 human non-small cell lung cancer cells; assay: ATM inhibition test (phosphorylation of Chk2 generated by ionizing radiation, AlphaScreen SureFire); format: cell-based; conditions: phosphorylated Chk2 in NCI-H460 cells, ionizing radiation 8Gy, 1 hour after test compound treatment; read-out: ATM inhibitory activity
Sequence (Q13315 whole entry): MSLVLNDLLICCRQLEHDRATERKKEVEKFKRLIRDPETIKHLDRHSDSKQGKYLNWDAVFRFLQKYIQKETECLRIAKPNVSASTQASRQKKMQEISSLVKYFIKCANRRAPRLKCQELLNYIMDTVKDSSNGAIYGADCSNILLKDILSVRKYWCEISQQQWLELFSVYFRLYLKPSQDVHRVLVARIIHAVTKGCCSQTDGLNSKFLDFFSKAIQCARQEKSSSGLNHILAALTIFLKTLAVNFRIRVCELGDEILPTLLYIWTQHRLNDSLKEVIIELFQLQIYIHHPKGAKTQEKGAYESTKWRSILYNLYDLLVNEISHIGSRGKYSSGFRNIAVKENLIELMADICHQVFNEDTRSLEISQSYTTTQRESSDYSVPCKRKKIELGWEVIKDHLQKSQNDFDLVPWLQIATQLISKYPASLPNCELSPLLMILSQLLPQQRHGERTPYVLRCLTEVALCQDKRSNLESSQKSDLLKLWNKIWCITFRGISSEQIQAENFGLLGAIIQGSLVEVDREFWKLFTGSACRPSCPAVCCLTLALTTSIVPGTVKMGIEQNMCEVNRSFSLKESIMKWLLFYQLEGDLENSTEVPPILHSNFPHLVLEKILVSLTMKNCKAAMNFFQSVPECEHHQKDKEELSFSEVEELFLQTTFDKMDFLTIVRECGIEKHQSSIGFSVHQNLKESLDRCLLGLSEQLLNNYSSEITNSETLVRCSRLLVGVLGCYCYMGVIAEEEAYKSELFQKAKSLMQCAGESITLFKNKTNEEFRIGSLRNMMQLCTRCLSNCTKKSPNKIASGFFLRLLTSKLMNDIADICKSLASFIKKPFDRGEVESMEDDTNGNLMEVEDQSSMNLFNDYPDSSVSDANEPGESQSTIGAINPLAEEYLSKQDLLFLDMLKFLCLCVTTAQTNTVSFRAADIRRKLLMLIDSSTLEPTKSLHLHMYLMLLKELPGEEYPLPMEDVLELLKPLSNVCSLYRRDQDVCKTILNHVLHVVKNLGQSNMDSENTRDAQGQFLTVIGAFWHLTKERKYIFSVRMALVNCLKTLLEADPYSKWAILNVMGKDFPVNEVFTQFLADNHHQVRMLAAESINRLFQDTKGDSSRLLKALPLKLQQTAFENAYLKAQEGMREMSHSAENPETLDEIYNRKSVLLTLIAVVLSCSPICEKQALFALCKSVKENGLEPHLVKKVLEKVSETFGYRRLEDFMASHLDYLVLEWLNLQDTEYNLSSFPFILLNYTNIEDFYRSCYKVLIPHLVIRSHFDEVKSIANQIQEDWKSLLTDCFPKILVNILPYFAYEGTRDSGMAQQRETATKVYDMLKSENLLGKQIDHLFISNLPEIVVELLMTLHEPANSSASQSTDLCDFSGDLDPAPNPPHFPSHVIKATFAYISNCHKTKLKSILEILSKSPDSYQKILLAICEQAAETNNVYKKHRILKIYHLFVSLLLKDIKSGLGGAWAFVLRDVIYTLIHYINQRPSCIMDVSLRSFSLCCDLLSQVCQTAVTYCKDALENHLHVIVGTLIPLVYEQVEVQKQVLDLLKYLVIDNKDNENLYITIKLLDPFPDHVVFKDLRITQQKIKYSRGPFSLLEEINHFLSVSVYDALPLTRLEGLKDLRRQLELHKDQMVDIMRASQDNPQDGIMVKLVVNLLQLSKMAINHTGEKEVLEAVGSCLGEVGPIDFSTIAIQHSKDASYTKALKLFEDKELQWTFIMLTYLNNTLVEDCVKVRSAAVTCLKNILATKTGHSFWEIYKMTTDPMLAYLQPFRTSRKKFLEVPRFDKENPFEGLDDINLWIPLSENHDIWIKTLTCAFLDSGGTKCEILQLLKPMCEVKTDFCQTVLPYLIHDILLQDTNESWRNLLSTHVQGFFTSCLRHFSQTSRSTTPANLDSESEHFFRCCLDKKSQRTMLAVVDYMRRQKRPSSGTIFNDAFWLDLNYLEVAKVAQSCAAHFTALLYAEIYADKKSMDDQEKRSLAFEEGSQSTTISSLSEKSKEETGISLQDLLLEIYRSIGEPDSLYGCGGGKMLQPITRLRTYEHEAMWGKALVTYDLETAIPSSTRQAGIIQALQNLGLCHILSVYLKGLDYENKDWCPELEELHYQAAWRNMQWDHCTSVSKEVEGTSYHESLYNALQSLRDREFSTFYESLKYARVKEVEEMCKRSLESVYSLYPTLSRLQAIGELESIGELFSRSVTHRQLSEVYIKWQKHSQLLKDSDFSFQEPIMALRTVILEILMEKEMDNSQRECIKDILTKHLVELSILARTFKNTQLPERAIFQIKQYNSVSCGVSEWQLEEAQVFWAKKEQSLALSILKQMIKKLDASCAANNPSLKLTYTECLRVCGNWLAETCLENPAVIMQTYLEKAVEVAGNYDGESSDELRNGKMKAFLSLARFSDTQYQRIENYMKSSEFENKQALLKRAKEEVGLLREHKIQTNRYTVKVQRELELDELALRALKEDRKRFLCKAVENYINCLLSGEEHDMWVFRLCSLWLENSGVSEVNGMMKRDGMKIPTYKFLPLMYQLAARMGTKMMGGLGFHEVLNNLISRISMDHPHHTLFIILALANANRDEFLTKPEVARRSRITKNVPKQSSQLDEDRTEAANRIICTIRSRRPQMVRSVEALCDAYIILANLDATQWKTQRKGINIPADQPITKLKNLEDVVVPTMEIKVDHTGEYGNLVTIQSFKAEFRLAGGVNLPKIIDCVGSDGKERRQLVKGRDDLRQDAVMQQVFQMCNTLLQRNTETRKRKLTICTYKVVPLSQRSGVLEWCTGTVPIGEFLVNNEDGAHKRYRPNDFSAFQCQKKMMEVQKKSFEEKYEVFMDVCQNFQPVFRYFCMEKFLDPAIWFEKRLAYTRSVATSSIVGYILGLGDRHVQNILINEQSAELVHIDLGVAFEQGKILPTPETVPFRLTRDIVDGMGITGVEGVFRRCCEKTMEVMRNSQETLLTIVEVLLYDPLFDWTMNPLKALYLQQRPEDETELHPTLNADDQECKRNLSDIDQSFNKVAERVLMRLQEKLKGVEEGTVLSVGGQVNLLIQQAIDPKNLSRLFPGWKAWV
MEASURED PROPERTY: IC50

> print(dat)
                                   compound  observed.result
1  O=c1cc(N2CCOCC2)cc(-c2cccc3c2Sc2ccc(NCc4ncccn4)cc2C3)[nH]1 [Example 3-8-6]    100 to 500 nM
2  CN1CCC(Nc2ccc3c(c2)Sc2cccc(-c4cc(N5CCOCC5)cc(=O)[nH]4)c2O3)CC1 [Example 4-8-2]    100 to 500 nM
3  COC(=O)C(Nc1ccc2c(c1)Sc1cccc(-c3cc(N4CCOCC4)cc(=O)[nH]3)c1S2)c1cccc(C)n1 (stereo not drawn) [Example 1-12-107]         < 100 nM
4  CC(C)Nc1cncc(CNc2ccc3c(c2)Cc2cccc(-c4cc(N5CCOCC5)cc(=O)[nH]4)c2O3)c1 [Example 2-2-75]    100 to 500 nM
5  CCOc1ccc(CNc2ccc3c(c2)Cc2cccc(-c4cc(N5CCOCC5)cc(=O)[nH]4)c2O3)cn1 [Example 2-2-23]    100 to 500 nM
6  O=C1CCN1c1cncc(CNc2ccc3c(c2)Sc2cccc(-c4cc(N5CCOCC5)cc(=O)[nH]4)c2O3)c1 [Example 4-8-16]    100 to 500 nM
